Data provenance: paper PMC11191095

Test system: C. tropicalis NCPF 8760
measurement-description: microbe, parasite or virus in culture
Type: cell-based
setup-conditions: C. tropicalis NCPF 8760; 90% growth inhibition; RPMI 1640 + 2% glucose, 37 °C, 20 h
Where a SMILES comes first, the peptide text is derived from it.
test-readout: Modal MIC90 (µg/mL)
Field format: number, assumed µg/mL, no unit text.

Problem: What value of measured Modal MIC90 is listed for CC(C)[C@H](NC(=O)CNC(=O)[C@H](CCCNC(=N)N)NC(=O)[C@@H](N)CCCNC(=N)N)C(=O)N[C@@H](CS)C(=O)N[C@@H](CCCNC(=N)N)C(=O)N[C@@H](CS)C(=O)N[C@H](C(=O)N[C@@H](CS)C(=O)N[C@@H](CCCNC(=N)N)C(=O)N[C@@H](CCCNC(=N)N)C(N)=O)C(C)C [BTD11a] (H-RRGVCRCVCRR-NH2; N-terminus assumed) ?
Solution: 2

---

Test system: C. albicans NCPF 3281
measurement-description: microbe, parasite or virus in culture
Type: cell-based
setup-conditions: NCPF 3281, 20 h
Where a SMILES comes first, the peptide text is derived from it.
So I've got a bunch of compounds here, and I need their Modal MIC50 values.

Problem: Need Modal MIC50, item CC(C)[C@H](NC(=O)[C@H](CS)NC(=O)[C@@H](N)CCCNC(=N)N)C(=O)N[C@@H](CS)C(=O)N[C@H](C(=O)N[C@@H](CCCNC(=N)N)C(=O)NCC(=O)N[C@@H](Cc1ccccc1)C(=O)N[C@@H](CS)C(=O)O)[C@@H](C)O [ThetaDefA] (H-RCVCTRGFC-OH; N-terminus and C-terminus assumed)
Solution: > 122.6 µM

Problem: I would be grateful if you could share the reported Modal MIC50 for CC[C@H](C)[C@H](NC(=O)[C@H](CCCCN)NC(=O)[C@H](CC(C)C)NC(=O)CNC(=O)[C@H](C)NC(=O)[C@H](CCCCN)NC(=O)[C@H](CC(C)C)NC(=O)[C@H](C)NC(=O)[C@H](CCCCN)NC(=O)CNC(=O)[C@H](CC(C)C)NC(=O)[C@@H](N)Cc1ccccc1)C(=O)NCC(=O)N[C@@H](CO)C(=O)N[C@@H](Cc1c[nH]cn1)C(=O)N[C@@H](CC(C)C)C(N)=O [CPF-P2a] (H-FLGKALKAGLKIGSHL-NH2) .
Solution: > 74 µM

Problem: Please report the recorded Modal MIC50 for CC[C@H](C)[C@H](NC(=O)[C@H](CCCCN)NC(=O)[C@H](CC(C)C)NC(=O)[C@H](C)NC(=O)[C@H](C)NC(=O)[C@H](CCCCN)NC(=O)[C@H](CC(C)C)NC(=O)[C@H](C)NC(=O)[C@H](CCCCN)NC(=O)CN)C(=O)NCC(=O)N[C@@H](C)C(=O)N[C@@H](CC(N)=O)C(=O)N[C@H](C(=O)N[C@@H](CC(C)C)C(=O)NCC(=O)NCC(=O)N[C@@H](C)C(=O)N1CCC[C@H]1C(=O)N[C@@H](CCC(N)=O)C(N)=O)C(C)C [CPF-P3-20a] (H-GKALKAALKIGANVLGGAPQ-NH2) .
Solution: > 65.7 µM

Problem: Query: Modal MIC50; subject: CC[C@H](C)[C@H](NC(=O)[C@@H](N)CCCCN)C(=O)N[C@@H](C)C(=O)N[C@@H](CCCCN)C(=O)N[C@H](C(=O)N[C@@H](C)C(=O)N[C@@H](CC(C)C)C(=O)N[C@@H](CCCCN)C(=O)N[C@@H](C)C(=O)N[C@@H](CC(C)C)C(N)=O)C(C)C [DRAMP02273a] (H-KIAKVALKAL-NH2)
Solution: > 117.5 µM

Problem: Which Modal MIC50 is listed for CC(C)C[C@H](NC(=O)CNC(=O)[C@H](Cc1ccccc1)NC(=O)[C@H](CCCCN)NC(=O)[C@H](Cc1ccccc1)NC(=O)[C@H](C)NC(=O)[C@@H](N)CCCCN)C(=O)N[C@@H](CCCCN)C(=O)N[C@H](C(=O)N[C@H](C(N)=O)C(C)C)[C@@H](C)O [CPF-MW-10a] (H-KAFKFGLKTV-NH2) ?
Solution: > 110.8 µM

Problem: I'd like to know its Modal MIC50. The compound in question is CC(C)[C@H](NC(=O)CNC(=O)[C@H](CCCNC(=N)N)NC(=O)[C@@H](N)CCCNC(=N)N)C(=O)N[C@@H](CS)C(=O)N[C@@H](CCCNC(=N)N)C(=O)N[C@@H](CS)C(=O)N[C@H](C(=O)N[C@@H](CS)C(=O)N[C@@H](CCCNC(=N)N)C(=O)N[C@@H](CCCNC(=N)N)C(N)=O)C(C)C [BTD11a] (H-RRGVCRCVCRR-NH2; N-terminus assumed)
Solution: 23.5 µM

Problem: # get_value(readout='Modal MIC50', item= CC(C)[C@H](NC(=O)CNC(=O)[C@H](CCCNC(=N)N)NC(=O)[C@H](CCCNC(=N)N)NC(=O)[C@H](CS)NC(=O)[C@@H](NC(=O)[C@H](CS)NC(=O)[C@@H](N)CCCNC(=N)N)C(C)C)C(=O)N[C@@H](CS)C(=O)O [ThetaDefB] (H-RCVCRRGVC-OH; N-terminus and C-terminus assumed) )
Solution: > 116.4 µM
